# assay_explanation: yeast display, Sf9 membrane polyspecificity reagent, FACS + sequencing; frameworks hold sequencing errors
assay_readout: polyreactivity (PSR sort gate)

Look over these answered cases.
entry_sequence: QVQLVESGGGLVQAGGSLRLSCAASGSNFTFYAMGWYRQAPGKERELVAAISKGGDRTYYADSVKGRFTISRDNAKNTVYLQMNSLKPEDTAVYYCARLVRPGRFGDGDYWGQGTQVTVSS
polyreactivity (PSR sort gate): low polyreactivity

entry_sequence: QVQLVESGGGLVQAGGSLRLICAASGSTFGPNAMGWYRQAPGKEREFVASISWRGGRTYYADSVKGRFTISRDNAKNSVYLQMYCLKPEDTAVSYCAAVSYPAVYGFDYWGQGTQVTVSS
polyreactivity (PSR sort gate): high polyreactivity

entry_sequence: QVQLVESGGGLVQAGGSLRLSCAASGSTFGTYAMGWYRKAPGKERELVAAISTGGSTYYADSVKGRFTISRDNAKNTVYLQMNSLKPEDTAVYYCAALADYVRRASEYWGQGTQVTVSS
polyreactivity (PSR sort gate): high polyreactivity

entry_sequence: QVQLVESGGGLVQAGGSLRLICVASGRIFLTYAMGWYRQAPGKERELVAAISYSGASTYYADSVKGRFTISRDNAKNTVYLQMNSLKPEDTAVYYCAKDGTQYERQDPAYGYWGQGTQVTVSS
polyreactivity (PSR sort gate): high polyreactivity

entry_sequence: QVQIVESGGGLVQAGGSLRLSCAASGSTFTLNAMGWYRQAPGKERELVADISWSSGRTYYADSVKGRFTISRDNAKNTVYLQMNSLKPEDTAVYYCAARLPFEHVDYWGQGTQVTVSS
polyreactivity (PSR sort gate): low polyreactivity

Item: `QVQLVESGGGLVQAGGSRRLSCAASGSTFYGYAMGWYRQAPGKERELVAAIRRIGGTTYADSVKGRFTLSRDNAKNTVYLQMNSLKPEDTAVYYCAAYGFSYRYRYYYWGQGTQVTVSS` | polyreactivity (PSR sort gate): high polyreactivity

Item: `QVQLVESGGVLVQAGGSLRLTCAASGFIFKIYAMGWYRQAPGKERELVARITRSGGSTYYADSVKGRFTNSRDNAKNTVYLQMNSLKPEDTAVYYCNAELFRYVRYEYWGQGTQVTVSS` | polyreactivity (PSR sort gate): high polyreactivity

Item: `QVQLVESGGGLVQAGGSLRLSCAASGSTFLFYTMGWYRQAPGKERELVAAINSGGSTNYADSVKGRFTISRDNAKNTVYLQMNSLKPEDTAVYYCNADRTYVYKYTYSFYYWGQGTQVTVSS` | polyreactivity (PSR sort gate): low polyreactivity

Item: `QVQLVESGGGLVQAGGSLRLSCPASGSTFARNAMGWSRQAPGKEREFVASIRWGGGSTYYADSVKARFTISRDNAKNTVYLQMNSLKAEDTAVYYCATRGWSKHLFGGYTQYYYWGQGTQVTVSS` | polyreactivity (PSR sort gate): high polyreactivity

Item: `QVQLVESGGGLVQAGGTLRLSCAASGSTSSNNAMGWYRQAPGKARELVADISTNGDSTSYADSVKGRFTISRDNAKNPVYLLMNSLKPEDTAVYYSAASTYVTYWEYDYWGQGTQVTVSS` | polyreactivity (PSR sort gate): low polyreactivity

Item: `QVQLVESGGGLVQAGGSLRLSCAASGFIFVVYAMGWYRQAPGTERDLVATISSGGGTYYADSVKGRFTISLDNAKNTVYLQMNSLKPEDTAVYYCAARRRRLYHFGGNNYCGQGTQVTVSS` | polyreactivity (PSR sort gate): high polyreactivity
